- target-entity: T1, hu-sCD47-6His; extracellular domain of human CD47 antigen with 6His-tag (human)
- T1 construct: also called hCD47-his; soluble hCD47
- procedure-summary: SPR Biacore
Known kon of a selection of binders
value-kind: kon (M⁻¹ s⁻¹)

binder: h20-H2-L5Y (candidate 20.26), huIgG4_S228P format (antibody, V domains shown, also called H20-VH2-VL5,Y; h2O-H2L5Y) VH: QVQLVQSGAEVKKPGASVKVSCKASGYSFTDYYINWVRQAPGQGLEWMGRIYPGIGNTYYNKKFKGRVTITRDTSASTAYMELSSLRSEDTAVYYCARGHYGRGMDYWGQGTLVTVSS VL: DIVMTQSPDSLAVSLGERATINCKSSQSLLNSIDQKNYLAWYQQKPGQPPKLLIYYASTKESGVPDRFSGSGSGTDFTLTISGLQAEDVAVYFCQQHYSTPWTFGGGTKVEIRR
value-observed: 306000
--
binder: h20-H4-L5Y (candidate 20.30), hIgG4-S228P (antibody, V domains shown, also called H20-VH4-VL5,Y) VH: QVQLVQSGAEVKKPGSSVKVSCKASGYSFTDYYINWVRQAPGQGLEWMGRIYPGIGNTYYNKKFKGRVTITADKSTSTAYMELSSLRSEDTAVYYCARGHYGRGMDYWGQGTTVTVSS VL: DIVMTQSPDSLAVSLGERATINCKSSQSLLNSIDQKNYLAWYQQKPGQPPKLLIYYASTKESGVPDRFSGSGSGTDFTLTISGLQAEDVAVYFCQQHYSTPWTFGGGTKVEIRR
value-observed: 254000
--
binder: h20-H3-L2Y (candidate 20.27), hIgG4-S228P (antibody, V domains shown, also called H20-VH3-VL2,Y) VH: QVQLVQSGAEVKKPGASVKVSCKASGYSFTDYYINWVRQAPGQGLEWMGRIYPGIGNTYYNKKFKGRVTVTRDTSISTAHMELSSLRSDDTAVYYCARGHYGRGMDYWGQGTAVTVSS VL: DIVMTQSPDSLAVSLGERATINCKSSQSLLNSIDQKNYLAWYQQKPGQPPKLLIYYASTKESGVPDRFSGSGSGTDFTLTISSLQAEDVAVYYCQQHYSTPWTFGGGTKVEIKR
value-observed: 292000
--
binder: h20-H3-L3Y (candidate 20.28), hIgG4-S228P (antibody, V domains shown, also called H20-VH3-VL3,Y) VH: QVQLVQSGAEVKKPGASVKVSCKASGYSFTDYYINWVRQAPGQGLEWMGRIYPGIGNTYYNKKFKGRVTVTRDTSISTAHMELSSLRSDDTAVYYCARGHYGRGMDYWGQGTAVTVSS VL: EIVLTQSPDSLAVSLGERATINCKSSQSLLNSIDQKNYLAWYQQKAGQSPKLLIYYASTKESGVPDRFSGSGSGTDFTLTIDSLQAEDVAVYYCQQHYSTPWTFGGGTKVEIKR
value-observed: 264000
